Experiment: Selectivity index, ratio of IC50 for rat L6 cells to IC50 for amastigote form of Leishmania donovani MHOM/ET/67/L82
Assay type: toxicity
Conditions: read-out: Ratio IC50
Reported selectivity ratio values follow for various molecules
Just the number, please, no unit after it.

- Record smiles: "C=C1C(=O)O[C@H]2/C=C(/C)[C@@H](O)C[C@H](O)C(=C)C[C@H](OC(=O)/C(C)=C/C)[C@@H]12"
  Observed property: "selectivity ratio"
  Readout number: 1
- Record smiles: "C=C1C(=O)O[C@H]2/C=C(/C)[C@H](O)C[C@H](O)C(=C)C[C@H](OC(=O)/C(C)=C\\C)[C@@H]12"
  Observed property: "selectivity ratio"
  Readout number: 0.3
- Record smiles: "C=C1C(=O)O[C@@H](/C=C(\\C)C=O)[C@@H]1[C@H](/C=C(/C)C(C)=O)OC(=O)/C(C)=C\\C"
  Observed property: "selectivity ratio"
  Readout number: 11.2
- Record smiles: "C=C1C(=O)O[C@H]2[C@H]1[C@@H](OC(=O)/C(C)=C\\C)CC(=C)[C@@H]1C=C[C@@](C)(O)[C@H]21"
  Observed property: "selectivity ratio"
  Readout number: 7.2
- Record smiles: "C=C1C(=O)O[C@H]2/C=C(/C)[C@@H](O)C/C=C(\\C)C[C@H](OC(=O)/C(C)=C\\C)[C@@H]12"
  Observed property: "selectivity ratio"
  Readout number: 1.8

Challenge: Answer with the recorded selectivity ratio for the molecule listed here: C=C1C(=O)O[C@H]2/C=C(/C)[C@@H](O)C[C@@H]3O[C@]3(C)C[C@H](OC(=O)/C(C)=C/C)[C@@H]12
Response given: 1.9

Challenge: Answer with the recorded selectivity ratio for the molecule listed here: C=C1C(=O)O[C@H]2/C=C(/C)[C@@H](O)C[C@@H](O)/C(C)=C\[C@H](OC(=O)/C(C)=C\C)[C@@H]12
Response given: 0.6

Challenge: Answer with the recorded selectivity ratio for the molecule listed here: C=C(C[C@H](OC(=O)/C(C)=C\C)[C@@H]1C(=C)C(=O)O[C@H]1/C=C(\C)C=O)C(C)=O
Response given: 4.7

Origin of measurements: ChEMBL document CHEMBL4038265
